molecular target: Bovine Carbonic Anhydrase-II (Bos taurus); construct: pure bovine erythrocyte CA-II; from tissue; host or cells: bovine erythrocytes; experiment: Kinetics studies (Lineweaver-Burk, Dixon plots) against Bovine Carbonic Anhydrase-II; type: biochemical; conditions: Lineweaver-Burk / Dixon plots
PROPERTY MEASURED: Type of Inhibition

Here is how some compounds turned out for Type of Inhibition.
[
  {
    "COMPOUND": "NS(=O)(=O)c1ccc(NC(=S)NC(=O)c2cccc([N+](=O)[O-])c2)cc1 [Compound 6]",
    "Type of Inhibition": "Mixed type"
  },
  {
    "COMPOUND": "COc1cc(OC)cc(C(=O)NC(=S)Nc2ccc(S(N)(=O)=O)cc2)c1 [Compound 16]",
    "Type of Inhibition": "Noncompetitive"
  },
  {
    "COMPOUND": "Cc1ccc(C(=O)NC(=S)Nc2ccc(S(N)(=O)=O)cc2)cc1 [Compound 3]",
    "Type of Inhibition": "Mixed type"
  },
  {
    "COMPOUND": "COc1cccc(C(=O)NC(=S)Nc2ccc(S(N)(=O)=O)cc2)c1 [Compound 11]",
    "Type of Inhibition": "Noncompetitive"
  },
  {
    "COMPOUND": "Cc1ccccc1C(=O)NC(=S)Nc1ccc(S(N)(=O)=O)cc1 [Compound 9]",
    "Type of Inhibition": "Noncompetitive"
  }
]

Problem: Need Type of Inhibition of NS(=O)(=O)c1ccc(NC(=S)NC(=O)Cc2ccccc2)cc1 [Compound 8] , thanks.
Result: Mixed type

Problem: Item: NS(=O)(=O)c1ccc(NC(=S)NC(=O)c2ccccc2[N+](=O)[O-])cc1 [Compound 7]
Result: Mixed type

Problem: Item: NS(=O)(=O)c1ccc(NC(=S)NC(=O)c2cccc(Cl)c2)cc1 [Compound 5]
Result: Noncompetitive

Problem: Again, but for NS(=O)(=O)c1ccc(NC(=S)NC(=O)c2ccccc2)cc1 [Compound 1]
Result: Noncompetitive

====

biological target: Human Carbonic Anhydrase-II (human erythrocyte CA-II) (Homo sapiens, UniProt P00918)
pIC50: −log10 of the molar value.
PROPERTY MEASURED: pIC50

[
  {
    "COMPOUND": "NS(=O)(=O)c1ccc(NC(=S)NC(=O)c2cccc(Cl)c2)cc1",
    "pIC50": 6.55
  },
  {
    "COMPOUND": "Cc1ccccc1C(=O)NC(=S)Nc1ccc(S(N)(=O)=O)cc1",
    "pIC50": 6.74
  },
  {
    "COMPOUND": "NS(=O)(=O)c1ccc(NC(=S)NC(=O)C2CCCO2)cc1 (centres unmarked)",
    "pIC50": 6.57
  }
]

A: NS(=O)(=O)c1ccc(NC(=S)NC(=O)c2ccc(F)cc2)cc1
B: CCC(C(=O)NC(=S)Nc1ccc(S(N)(=O)=O)cc1)c1ccccc1 (centres unmarked)
Problem: Input pair: A , B . Output: entry with lower pIC50. Kindly give the label for the entry you pick.
Result: A

====

molecular target: Bovine Carbonic Anhydrase-II (Bos taurus); construct: pure bovine erythrocyte CA-II; from tissue; host or cells: bovine erythrocytes; assay: Kinetics studies (Lineweaver-Burk, Dixon plots) against Bovine Carbonic Anhydrase-II; format: biochemical
PROPERTY MEASURED: pKi
Recall that pKi is obtained by taking minus log10 of the concentration measured in molar.

Problem: Quick one: pKi for NS(=O)(=O)c1ccc(NC(=S)NC(=O)c2ccccc2)cc1 [Compound 1] ?
Result: 7.28

====

Measurement record for Human Carbonic Anhydrase-II (human erythrocyte CA-II) (Homo sapiens, UniProt P00918); quantity recorded: IC50.
PROPERTY MEASURED: IC50 (nM)

[
  {
    "COMPOUND": "NS(=O)(=O)c1ccc(NC(=S)NC(=O)Cc2ccccc2)cc1 [Compound 8]",
    "MEASUREMENT UNIT": "nM",
    "IC50": 160
  }
]

a: Cc1cccc(C(=O)NC(=S)Nc2ccc(S(N)(=O)=O)cc2)c1 [Compound 10]
b: NS(=O)(=O)c1ccc(NC(=S)NC(=O)c2ccc(Cl)cc2[N+](=O)[O-])cc1 [Compound 12]
Problem: Among a and b , which shows a numerically higher IC50 result? Answer by stating the label of the chosen item.
Result: b
(b: 460 nM, a: 190 nM)

====

target: Bovine Carbonic Anhydrase-II (Bos taurus, UniProt P00921); construct: pure bovine erythrocyte CA-II; from tissue; host or cells: bovine erythrocytes; assay: Kinetics studies (Lineweaver-Burk, Dixon plots) against Bovine Carbonic Anhydrase-II; type: biochemical; conditions: enzyme Vmax without inhibitor
Sequence (P00921 whole entry): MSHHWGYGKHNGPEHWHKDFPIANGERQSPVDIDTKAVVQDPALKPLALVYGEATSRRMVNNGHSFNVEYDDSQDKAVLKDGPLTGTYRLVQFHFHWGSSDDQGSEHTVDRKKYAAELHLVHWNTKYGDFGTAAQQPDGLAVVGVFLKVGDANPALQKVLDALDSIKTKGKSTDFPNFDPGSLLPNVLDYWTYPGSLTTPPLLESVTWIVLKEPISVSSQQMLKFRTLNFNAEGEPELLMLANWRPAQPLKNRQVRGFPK
PROPERTY MEASURED: Vmax

Example results:
[
  {
    "COMPOUND": "NS(=O)(=O)c1ccc(NC(=S)NC(=O)c2cccc(Cl)c2)cc1",
    "TEST RESULT": "76.33 (μM/L/min)^−1"
  },
  {
    "COMPOUND": "NS(=O)(=O)c1ccc(NC(=S)NC(=O)c2ccccc2[N+](=O)[O-])cc1",
    "TEST RESULT": "71.42 (μM/L/min)^−1"
  },
  {
    "COMPOUND": "Cc1ccc(C(=O)NC(=S)Nc2ccc(S(N)(=O)=O)cc2)cc1",
    "TEST RESULT": "80 (μM/L/min)^−1"
  },
  {
    "COMPOUND": "COc1cccc(C(=O)NC(=S)Nc2ccc(S(N)(=O)=O)cc2)c1",
    "TEST RESULT": "88.49 (μM/L/min)^−1"
  },
  {
    "COMPOUND": "NS(=O)(=O)c1ccc(NC(=S)NC(=O)C2CCCO2)cc1 (stereo not shown)",
    "TEST RESULT": "111.11 (μM/L/min)^−1"
  },
  {
    "COMPOUND": "NS(=O)(=O)c1ccc(NC(=S)NC(=O)c2ccc([N+](=O)[O-])cc2)cc1",
    "TEST RESULT": "53.19 (μM/L/min)^−1"
  },
  {
    "COMPOUND": "NS(=O)(=O)c1ccc(NC(=S)NC(=O)c2ccc(Cl)cc2)cc1",
    "TEST RESULT": "80 (μM/L/min)^−1"
  },
  {
    "COMPOUND": "Cc1ccccc1C(=O)NC(=S)Nc1ccc(S(N)(=O)=O)cc1",
    "TEST RESULT": "90.90 (μM/L/min)^−1"
  },
  {
    "COMPOUND": "NS(=O)(=O)c1ccc(NC(=S)NC(=O)c2ccccc2)cc1",
    "TEST RESULT": "99.00 (μM/L/min)^−1"
  },
  {
    "COMPOUND": "CCC(C(=O)NC(=S)Nc1ccc(S(N)(=O)=O)cc1)c1ccccc1 (stereo not shown)",
    "TEST RESULT": "42.73 (μM/L/min)^−1"
  }
]

Then there is this compound:
Problem: Bench note: what Vmax did NS(=O)(=O)c1ccc(NC(=S)NC(=O)Cc2ccccc2)cc1 show?
Result: 81.30 (μM/L/min)^−1

====

biological target: Bovine Carbonic Anhydrase-II (Bos taurus); construct: pure bovine erythrocyte CA-II; from tissue; host or cells: bovine erythrocytes; experiment: Kinetics studies (Lineweaver-Burk, Dixon plots) against Bovine Carbonic Anhydrase-II; assay type: biochemical; design: unit not given here; conditions: apparent Vmax with inhibitor (0.2-0.00625 μM)
PROPERTY MEASURED: Vmax app

[
  {
    "COMPOUND": "NS(=O)(=O)c1ccc(NC(=S)NC(=O)c2ccc(Cl)cc2[N+](=O)[O-])cc1",
    "Vmax app": 34.12
  },
  {
    "COMPOUND": "Cc1ccccc1C(=O)NC(=S)Nc1ccc(S(N)(=O)=O)cc1",
    "Vmax app": 14.61
  },
  {
    "COMPOUND": "NS(=O)(=O)c1ccc(NC(=S)NC(=O)c2ccccc2[N+](=O)[O-])cc1",
    "Vmax app": 19.30
  },
  {
    "COMPOUND": "COc1cc(OC)cc(C(=O)NC(=S)Nc2ccc(S(N)(=O)=O)cc2)c1",
    "Vmax app": 37.31
  },
  {
    "COMPOUND": "NS(=O)(=O)c1ccc(NC(=S)NC(=O)c2cccc([N+](=O)[O-])c2)cc1",
    "Vmax app": 17.48
  },
  {
    "COMPOUND": "NS(=O)(=O)c1ccc(NC(=S)NC(=O)c2ccc([N+](=O)[O-])cc2)cc1",
    "Vmax app": 18.97
  }
]

A: Cc1ccc(C(=O)NC(=S)Nc2ccc(S(N)(=O)=O)cc2)cc1
B: NS(=O)(=O)c1ccc(NC(=S)NC(=O)C2CCCO2)cc1 (stereo not shown)
C: CCC(C(=O)NC(=S)Nc1ccc(S(N)(=O)=O)cc1)c1ccccc1 (stereo not shown)
D: NS(=O)(=O)c1ccc(NC(=S)NC(=O)Cc2ccccc2)cc1
Problem: List items by Vmax app in falling order. List labels; respect the requested ordering.
Result: A, B, C, D
